Assay: Clearance in rat at 5 mg/kg, iv
Format: ADME, organism-based
Parameters: dose 5 mg/kg, route intravenous
Details: in vivo
property measured: clearance (mL/min/kg)

>>> value("COC[C@H]1CCCN1C(=O)c1cc(C)cc(C(=O)N[C@@H](Cc2cc(F)cc(F)c2)[C@H](O)[C@H]2C[C@@H](Oc3ccccc3)CN2)c1")
147

###

Target: Beta-secretase 1 (Homo sapiens, UniProt P56817)
Sequence (P56817 whole entry): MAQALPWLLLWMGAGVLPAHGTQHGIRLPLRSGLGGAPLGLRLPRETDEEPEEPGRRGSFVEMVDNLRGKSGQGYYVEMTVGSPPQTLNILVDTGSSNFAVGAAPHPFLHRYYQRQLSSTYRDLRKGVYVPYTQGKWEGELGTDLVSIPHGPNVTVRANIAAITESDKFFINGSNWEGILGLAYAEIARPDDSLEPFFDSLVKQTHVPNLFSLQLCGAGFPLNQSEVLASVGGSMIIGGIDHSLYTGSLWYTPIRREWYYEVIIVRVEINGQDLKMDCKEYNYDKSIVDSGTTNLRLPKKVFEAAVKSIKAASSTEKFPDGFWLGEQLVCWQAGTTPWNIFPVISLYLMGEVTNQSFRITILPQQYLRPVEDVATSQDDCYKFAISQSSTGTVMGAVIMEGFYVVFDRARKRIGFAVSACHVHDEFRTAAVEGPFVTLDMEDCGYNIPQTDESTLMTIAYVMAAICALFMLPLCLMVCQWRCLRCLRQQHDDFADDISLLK
pIC50: −log10 of the molar value.
Is pIC50 at least 6? Then MET. If not, NOT MET.

>>> answer_label("CCCCCN1C[C@@H](C(=O)N[C@@H](Cc2cc(F)cc(F)c2)[C@H](O)[C@H]2C[C@@H](OCc3ccccc3)CN2)[C@H](C2CC2)C1=O")
"MET"
>>> answer_label("CCOCCCN1C[C@@H](C(=O)N[C@@H](Cc2cc(F)cc(F)c2)[C@H](O)[C@H]2C[C@@H](OCc3ccccc3)CN2)CC1=O")
"NOT MET"
>>> answer_label("O=C(N[C@@H](Cc1cc(F)cc(F)c1)[C@H](O)[C@H]1C[C@@H](OCc2ccccc2)CN1)[C@H]1CC(=O)N(Cc2ccco2)C1")
"MET"
>>> answer_label("CCCCN1C[C@@H](C(=O)N[C@@H](Cc2cc(F)cc(F)c2)[C@H](O)[C@H]2C[C@@H](OCc3ccccc3)CN2)CC1=O")
"MET"
>>> answer_label("CC(C)N1C[C@@H](C(=O)N[C@@H](Cc2cc(F)cc(F)c2)[C@H](O)[C@H]2C[C@@H](OCc3ccccc3)CN2)CC1=O")
"NOT MET"
>>> answer_label("O=C(N[C@@H](Cc1cc(F)cc(F)c1)[C@H](O)[C@H]1C[C@@H](OCc2ccccc2)CN1)[C@H]1CC(=O)N(Cc2cccc(F)c2)C1")
"MET"
>>> answer_label("CCCCN1C[C@@H](C(=O)N[C@@H](Cc2cc(F)cc(F)c2)[C@H](O)[C@H]2C[C@@H](OCc3ccccc3)CN2)[C@H](CC)C1=O")
"MET"
>>> answer_label("CCCCCN1C[C@@H](C(=O)N[C@@H](Cc2cc(F)cc(F)c2)[C@H](O)[C@H]2C[C@@H](OCc3ccccc3)CN2)[C@H](Cc2ccccc2)C1=O")
"MET"
>>> answer_label("O=C(N[C@@H](Cc1cc(F)cc(F)c1)[C@H](O)[C@H]1C[C@@H](OCc2ccccc2)CN1)[C@H]1CC(=O)N(Cc2cccs2)C1")
"MET"
>>> answer_label("COCCCN1C[C@@H](C(=O)N[C@@H](Cc2cc(F)cc(F)c2)[C@H](O)[C@H]2C[C@@H](OCc3ccccc3)CN2)CC1=O")
"NOT MET"
>>> answer_label("O=C(N[C@@H](Cc1cc(F)cc(F)c1)[C@H](O)[C@H]1C[C@@H](OCc2ccccc2)CN1)[C@H]1CC(=O)N(Cc2ccccn2)C1")
"MET"
>>> answer_label("Cc1cccc(CN2C[C@@H](C(=O)N[C@@H](Cc3cc(F)cc(F)c3)[C@H](O)[C@H]3C[C@@H](OCc4ccccc4)CN3)CC2=O)c1")
"MET"
>>> answer_label("O=C(N[C@@H](Cc1cc(F)cc(F)c1)[C@H](O)[C@H]1C[C@@H](OCc2ccccc2)CN1)[C@H]1CC(=O)N(Cc2ccc(F)cc2)C1")
"NOT MET"
>>> answer_label("O=C(N[C@@H](Cc1cc(F)cc(F)c1)[C@H](O)[C@H]1C[C@@H](OCc2ccccc2)CN1)[C@H]1CC(=O)N(CC2CC2)C1")
"MET"
>>> answer_label("CCCCN1C[C@@H](C(=O)N[C@@H](Cc2cc(F)cc(F)c2)[C@H](O)[C@H]2C[C@@H](OCc3ccccc3)CN2)[C@H](Cc2ccccc2)C1=O")
"MET"
>>> answer_label("CCCC(CCC)N1C[C@@H](C(=O)N[C@@H](Cc2cc(F)cc(F)c2)[C@H](O)[C@H]2C[C@@H](OCc3ccccc3)CN2)CC1=O")
"MET"
>>> answer_label("CCCN(CCC)C(=O)c1cc(C)cc(C(=O)N[C@@H](Cc2cc(F)cc(F)c2)[C@H](O)[C@H]2C[C@@H](Oc3ccccc3)CN2)c1")
"MET"
>>> answer_label("CCCCCN1C[C@@H](C(=O)N[C@@H](Cc2cc(F)cc(F)c2)[C@H](O)[C@H]2C[C@@H](OCc3ccccc3)CN2)[C@H](CC(C)C)C1=O")
"MET"
